meta.source: ChEMBL document CHEMBL4342426

assay: in vitro; details: human, liver microsomes
Description: Metabolic stability in human liver microsomes assessed as intrinsic clearance at 0.5 uM incubated for 30 mins by LC-MS/MS analysis
measured attribute: CLint scaled at 0.5 h, 0.5 µM

See these solved cases before continuing.
compound	CLint scaled at 0.5 h, 0.5 µM
O=C(c1cc(C2CC2)no1)N1CCOC(c2cc3ncccc3[nH]2)C1 (stereo unspecified)	< 27.8 mL/min/kg
O=C1c2ccccc2CN1CCc1cc2ncccc2[nH]1	119 mL/min/kg
CCN(CCC(=O)Nc1cccnc1)C(=O)c1ccc(F)cc1	< 43.3 mL/min/kg

Data request: Read off the recorded CLint scaled at 0.5 h, 0.5 µM for CC(C)(O)c1cc(C(=O)N2CCCC(c3cc4ncccc4[nH]3)C2)on1 (stereo unspecified)
Data returned: < 37.8 mL/min/kg

Data request: Indicate its recorded CLint scaled at 0.5 h, 0.5 µM; the compound in question is Nc1cc(C2CCCN(C(=O)c3ccccc3)C2)[nH]n1 (stereo unspecified)
Data returned: < 36.7 mL/min/kg

Data request: Please report CLint scaled at 0.5 h, 0.5 µM for the following compound: O=C(c1cccc(C(F)(F)F)n1)N1CCCC(c2cc3ncccc3[nH]2)C1 (stereo unspecified)
Data returned: 38.3 to 210 mL/min/kg
